Test system: SR
test: NCI tumour cell line growth inhibition, 48 h
Activity calls are given as the source filed them. Cut-off read from the data, not from the text of the source: active = GI50 up to about 1.1 µM and inactive = higher.
A correct response names exactly one class from active, inactive

For `CC(C)(C)Nc1noc(=O)n1C(C)(C)C` , which call appears in the assay record?
inactive

----------
Test system: UO-31
test: NCI tumour cell line growth inhibition, 48 h
Active and inactive are the calls of the source. No stated cut-off is given here; in the data, active = GI50 up to about 1.1 µM and inactive = higher.
readout.kind: GI50

Some molecules with known GI50 results, for comparison:
Output GI50 of COc1ccc2c(c1OC)C(Br)CCC(Br)(Br)C2=O (stereo not drawn)
4.81 µM (inactive)

Output GI50 of `Cc1cccc(NS(=O)(=O)c2ccc3c(c2)OCCOCCOCCOCCO3)c1`
> 100 µM (inactive)

***
Output GI50 of `CCOCCOCCOCc1nc(C#N)c(N)o1`
> 100 µM (inactive)
